molecular target: recombinant human H3 receptor, expressed in HEK-293 cells (Homo sapiens); assay: H3-receptor binding assay, recombinant human receptor; conditions: recombinant human receptor assay (HEK-293)
Sequence (Q9Y5N1 whole entry): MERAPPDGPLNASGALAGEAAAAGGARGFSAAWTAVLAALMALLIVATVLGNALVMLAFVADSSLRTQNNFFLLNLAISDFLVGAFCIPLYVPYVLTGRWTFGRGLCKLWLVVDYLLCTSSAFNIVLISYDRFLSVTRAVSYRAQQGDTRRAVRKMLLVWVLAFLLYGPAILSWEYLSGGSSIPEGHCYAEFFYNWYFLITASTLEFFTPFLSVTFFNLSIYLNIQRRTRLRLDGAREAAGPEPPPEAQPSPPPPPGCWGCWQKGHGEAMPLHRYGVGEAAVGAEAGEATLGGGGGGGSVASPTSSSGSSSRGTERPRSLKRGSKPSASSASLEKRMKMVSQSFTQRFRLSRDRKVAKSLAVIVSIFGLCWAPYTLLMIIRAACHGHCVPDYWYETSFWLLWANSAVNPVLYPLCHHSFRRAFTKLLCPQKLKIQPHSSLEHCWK
observable: Ki (nM)
Answer with a number only, understood to be in nM.

Return reported Ki; argument: Nc1cc(CN2CCC(C(=O)N3CCC(NCc4ccc(F)cc4F)CC3)CC2)ccn1 [Example 256]
0.7
